// data source = PubChem BioAssay AID1963870

Test system: 292921-168-R-J2-PDC KRAS tumor spheroid viability;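 also: drug exposure lasted seven days after spheroids formed for three days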
MEASUREMENT DESCRIPTION: Anticancer human tumor 292921-168-R-J2-PDC patient-derived pancreatic carcinoma cell line growth inhibition [KRAS2]
CONDITION PARAMETERS: curve of first compound; second compound 3.16 µM; spheroids with HUVEC and MSC
From the text: Multicellular complex tumor spheroid response to RAS pathway inhibitors in combination with a targeted agents in patient-derived cell lines with oncogenic KRAS variants from multiple cancer types A high-throughput screen of multi-cell type tumor spheroids was designed to identify active combinations of targeted small molecules and KRAS pathway inhibitors. […] Compounds. […] If the clinical Cmax for an agent had not been determined, the highest concentration tested was 10 microM. […]
pIC50: −log10 of the molar value.
MEASURED PARAMETER: pIC50

Consider the worked cases shown below.
Value of pIC50 reported for the molecule Cn1ncnc1[C@H]1c2n[nH]c(=O)c3cc(F)cc(c23)N[C@@H]1c1ccc(F)cc1 + C=CC(=O)N1CCN(c2nc(OCC3CCCN3C)nc3c2CCN(c2cccc4cccc(C)c24)C3)CC1CC#N is > 9.50

Value of pIC50 reported for the molecule Cn1nccc1Nc1nccc(-c2cc3c(s2)C(C)(C)N(CCN2CCOCC2)C3=O)n1 + C=CC(=O)N1CCN(c2nc(=O)n(-c3c(C)ccnc3C(C)C)c3nc(-c4c(O)cccc4F)c(F)cc23)C(C)C1 is 7.11

Value of pIC50 reported for the molecule CN(C)C/C=C/C(=O)Nc1cc2c(Nc3ccc(F)c(Cl)c3)ncnc2cc1O[C@H]1CCOC1 + C=CC(=O)N1CCN(c2nc(=O)n(-c3c(C)ccnc3C(C)C)c3nc(-c4c(O)cccc4F)c(F)cc23)C(C)C1 is < 7.00

Value of pIC50 reported for the molecule CCNC(=O)CC1N=C(c2ccc(Cl)cc2)c2cc(OC)ccc2-n2c(C)nnc21 (stereo unspecified) + CC1OCC2(CCN(c3cnc(Sc4ccnc(N)c4Cl)c(N)n3)CC2)C1N is > 7.50

Below is a list of molecules. For each, state its recorded pIC50.
1. CC1OCC2(CCN(c3cnc(Sc4ccnc(N)c4Cl)c(N)n3)CC2)C1N (stereo unspecified) + C=CC(=O)N1CCN(c2nc(=O)n(-c3c(C)ccnc3C(C)C)c3nc(-c4c(O)cccc4F)c(F)cc23)C(C)C1
2. COc1cc(Nc2ncc3c(n2)-c2ccc(Cl)cc2C(c2c(F)cccc2OC)=NC3)ccc1C(=O)O + CC1OCC2(CCN(c3cnc(Sc4ccnc(N)c4Cl)c(N)n3)CC2)C1N

## Output
1. 6.66
2. > 7.50

Below is a list of molecules. For each, state its recorded pIC50.
1. CC1COCCN1c1cc(-c2ccnn2C)c2ccnc(-c3ccn[nH]3)c2n1 (stereo unspecified) + C=CC(=O)N1CCN(c2nc(=O)n(-c3c(C)ccnc3C(C)C)c3nc(-c4c(O)cccc4F)c(F)cc23)C(C)C1
2. CC(C)NCC(C(=O)N1CCN(c2ncnc3c2C(C)CC3O)CC1)c1ccc(Cl)cc1 (stereo unspecified) + COc1cc2nc(C)nc(NC(C)c3cc(N)cc(C(F)(F)F)c3)c2cc1OC1CCOC1
3. O=C(c1cc(Cc2n[nH]c(=O)c3ccccc23)ccc1F)N1CCN(C(=O)C2CC2)CC1 + CC1OCC2(CCN(c3cnc(Sc4ccnc(N)c4Cl)c(N)n3)CC2)C1N

## Output
1. > 8.00
2. 5.90
3. > 7.50

Below is a list of molecules. For each, state its recorded pIC50.
1. COc1cc(Nc2ncc3c(n2)-c2ccc(Cl)cc2C(c2c(F)cccc2OC)=NC3)ccc1C(=O)O + C=CC(=O)N1CCN(c2nc(OCC3CCCN3C)nc3c2CCN(c2cccc4cccc(C)c24)C3)CC1CC#N
2. COc1cc2nccc(Oc3ccc(NC(=O)C4(C(=O)Nc5ccc(F)cc5)CC4)cc3)c2cc1OC + CNCc1ccccc1-c1csc(C(C)Nc2nc(C)nc3cc(OC)c(OC)cc23)c1

## Output
1. > 7.50
2. > 7.50
